Recorded half-life values for a group of molecules are listed next.
protocolSummary: Hydrolysis half life at pH 7.4, 37° C. in aqueous phosphate buffer (UV spectroscopy; measure of the stability)
Assay type: physicochemical
testConditions: aqueous phosphate buffer
metric: half-life (h)

1. CC(C)(C)C1=C(C(=O)O)N2C(=O)C(C)(C)C2O1 (stereo not shown) : 30
2. CCC1=C(C(=O)O)N2C(=O)C(C)(C)C2O1 (stereo not shown) : 1.17
3. CC(C)C1=C(C(=O)O)N2C(=O)C(C)(C)C2O1 (stereo not shown) : 2
4. CC1=C(C(=O)O)N2C(=O)C(C)(C)C2O1 (stereo not shown) : 0.833
